# measured_target: Human HDAC8 (Homo sapiens)
# Sequence (Q9BY41 1-377): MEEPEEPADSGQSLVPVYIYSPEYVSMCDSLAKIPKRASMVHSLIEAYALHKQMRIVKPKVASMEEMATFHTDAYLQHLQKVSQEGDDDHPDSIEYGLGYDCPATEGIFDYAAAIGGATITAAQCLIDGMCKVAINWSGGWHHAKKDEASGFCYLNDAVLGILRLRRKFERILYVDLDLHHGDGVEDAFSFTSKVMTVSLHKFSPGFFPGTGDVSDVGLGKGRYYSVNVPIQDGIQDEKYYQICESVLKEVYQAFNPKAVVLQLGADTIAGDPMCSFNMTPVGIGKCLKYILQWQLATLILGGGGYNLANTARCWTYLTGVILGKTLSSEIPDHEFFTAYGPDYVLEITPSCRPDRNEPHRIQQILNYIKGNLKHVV
pIC50: −log10 of the molar value.
Overview of reported pIC50 across a group of compounds:

Solved cases (2 shown):
Nc1ccc(-c2cccs2)cc1NC(=O)c1ccc2c(c1)CCN(C(=O)c1cccnc1)C2 < 5.00
Nc1ccc(-c2cccs2)cc1NC(=O)c1ccc2c(c1)CCN(C(=O)C1CCOCC1)C2 < 5.00

# context switch: different compound, same pIC50
**Q:** Item Nc1ccc(-c2cccs2)cc1NC(=O)c1ccc2c(c1)CCNC2=O : provide pIC50
**A:** < 5.00
